tested on: CCRIS mutagenicity, Ames/micronucleus/aberration tests; test: CCRIS mutagenicity studies; conditions: Test System: AMES SALMONELLA TYPHIMURIUM; Strain/Indicator: TA1535; Metabolic Activation: NONE; Method: PREINCUBATION
Calls of active or inactive are those of the source. How the calls were made is not given here.
Labels: Yes (active), No (inactive)

compound=O=C(O)/C=C/c1ccccc1[N+](=O)[O-] qualitative_label=No
compound=NO qualitative_label=No
compound=CCOC(=O)N(CCC=O)N=O qualitative_label=Yes
compound=C1COCOC1 qualitative_label=No
compound=Cc1cccc(Br)c1 qualitative_label=No
compound="CC1CCc2c(N3CCC(O)CC3)c(F)cc3c(=O)c(C(=O)O)cn1c23 (stereo not drawn)" qualitative_label=No
compound=c1cc2c3c(cccc3c1)CC2 qualitative_label=No
compound=Cc1ccc(S(=O)(=O)NN)cc1 qualitative_label=Yes
compound=C=CCc1ccc(O)c(OC)c1 qualitative_label=No
compound=ClC(Cl)(Cl)Cl qualitative_label=No
compound=O=C1CCCCC1 qualitative_label=No
compound=O=NN(CCO)CCO qualitative_label=No
compound=CO qualitative_label=No
compound=CCNCCN qualitative_label=No
compound=OC1CCCCC1 qualitative_label=No
compound=COc1c(Cl)c(Cl)c(Cl)c(Cl)c1Cl qualitative_label=No
compound=CCOC(=O)OCC qualitative_label=No
compound=NCCCCCCN qualitative_label=No
compound="CCCCCCC(C)(C)C(=O)OCC1CO1 (stereo not drawn)" qualitative_label=No
compound=ClC1=C(Cl)[C@]2(Cl)[C@H]3[C@H]([C@@H]4C=C[C@H]3C4)[C@@]1(Cl)C2(Cl)Cl qualitative_label=No
compound=CN(C)c1cccc(O)c1 qualitative_label=No
compound=Cc1ccc(N)c(N)c1 qualitative_label=No
compound=CCCCCCCCCCCCCCCC(=O)O qualitative_label=No
compound=COc1cc(-c2ccc(N)c(OC)c2)ccc1N qualitative_label=No
compound=CCCCCCc1ccc(O)cc1O qualitative_label=No
compound="CCC(Cl)C(Cl)C(Cl)CC(Cl)C(Cl)C(C)Cl (stereo not drawn)" qualitative_label=No
compound="CC(CCN(C)C)N(C)C (stereo not drawn)" qualitative_label=No
compound=CC1=NN(c2ccccc2)C(=O)C1 qualitative_label=No
